test system: Streptococcus iniae; assay: Antibacterial activity against Streptococcus iniae SC41992 assessed as bacterial growth inhibition by broth microdilution method; format: functional
OBSERVED PROPERTY: MIC (mg/L)
One number for each entry, in mg/L.

CC1=C[C@@]2(C)[C@@H]3C(=O)[C@@]45C(=O)N[C@@](O)(Cc6ccc(cc6)O[C@@H]6[C@H]7[C@@H](C[C@H](C)C[C@@H]7C)[C@H]1[C@H]63)[C@H]4CC=C(C)[C@@H]25: 100
CC1=C2[C@@H](C)[C@@]3(C)O[C@H]3[C@]2(C)[C@H]2C(=O)[C@]34O[C@H]3[C@](O)(Cc3ccc(cc3)O[C@@H]3[C@H]5[C@@H](C[C@H](C)C[C@@H]5C)[C@H]1[C@H]32)NC4=O: 100

Problem: Recorded MIC for CC1=C[C@@]2(C)C(=C(C)[C@H]3[C@@H]4C[C@H](C)C[C@H](C)[C@H]4[C@H]4Oc5ccc(cc5)C[C@@H]5C(=O)NC(=O)[C@H]5C(=O)[C@@H]2[C@@H]43)[C@H]1C with Streptococcus iniae, please?
Solution: 50

---

Could you please report measured MIC for the items listed next?
tested on: Bacillus subtilis; assay: Antibacterial activity against Bacillus subtilis BS01 assessed as bacterial growth inhibition by broth microdilution method; assay type: functional

Please review the entries below; each comes with its answer.
CC1=C[C@@]2(C)C(=C(C)[C@H]3[C@@H]4C[C@H](C)C[C@H](C)[C@H]4[C@H]4Oc5ccc(cc5)C[C@@]5(O)C=C(C(=O)N5)C(=O)[C@H]2[C@@H]43)[C@H]1C: 0.2 µg/mL
C=C/C(C)=C/[C@]1(C)C=C(C)[C@H]2[C@@H]3C[C@H](C)C[C@H](C)[C@H]3[C@H]3Oc4ccc(cc4)C[C@@H]4C(=O)NC(=O)[C@H]4C(=O)[C@@H]1[C@@H]32: 100 µg/mL
CC1=C[C@@]2(C)[C@@H]3C(=O)[C@@]45C(=O)N[C@@](O)(Cc6ccc(cc6)O[C@@H]6[C@H]7[C@@H](C[C@H](C)C[C@@H]7C)[C@H]1[C@H]63)[C@H]4CC=C(C)[C@@H]25: 100 µg/mL
CC1=C2[C@@H](C)[C@@]3(C)O[C@H]3[C@]2(C)[C@H]2C(=O)[C@]34O[C@H]3[C@](O)(Cc3ccc(cc3)O[C@@H]3[C@H]5[C@@H](C[C@H](C)C[C@@H]5C)[C@H]1[C@H]32)NC4=O: 100 µg/mL
COC(=O)CC(=O)[C@@H]1[C@H]2[C@H](Oc3ccc(CC(N)=O)cc3)[C@H]3[C@@H](C[C@H](C)C[C@@H]3C)[C@@H]2C(C)=C2[C@@H](C)C(C)=C[C@@]21C: 100 µg/mL

Your task in this section: give MIC for each listed record.
1. CC1=C[C@@]2(C)C(=C(C)[C@H]3[C@@H]4C[C@H](C)C[C@H](C)[C@H]4[C@H]4Oc5ccc(cc5)C[C@@H]5C(=O)NC(=O)[C@H]5C(=O)[C@H]2[C@@H]43)[C@H]1C
2. CN[C@H](CC(C)C)C(=O)N[C@H]1C(=O)N[C@@H](CC(N)=O)C(=O)N[C@H]2C(=O)N[C@H]3C(=O)N[C@H](C(=O)N[C@H](C(=O)O)c4cc(O)cc(O)c4-c4cc3ccc4O)[C@H](O)c3ccc(c(Cl)c3)Oc3cc2cc(c3O[C@@H]2O[C@H](CO)[C@@H](O)[C@H](O)[C@H]2O[C@H]2C[C@](C)(N)[C@H](O)[C@H](C)O2)Oc2ccc(cc2Cl)[C@H]1O

Solution:
1: 13 µg/mL; 2: 0.31 µg/mL

Please look at the items below and tell me MIC for each one, in order.
1. CC1=C[C@@]2(C)C(=C(C)[C@H]3[C@@H]4C[C@H](C)C[C@H](C)[C@H]4[C@H]4Oc5ccc(cc5)C[C@@H]5C(=O)NC(=O)[C@H]5C(=O)[C@@H]2[C@@H]43)[C@H]1C
2. CC1=C[C@@]2(C)C(=C(C)[C@H]3[C@@H]4C[C@H](C)C[C@H](C)[C@H]4[C@@H]4Oc5ccc(cc5)C[C@@]5(O)C=C(C(=O)N5)C(=O)[C@@H]2[C@@H]43)[C@H]1C

Solution:
1. 50 µg/mL
2. 0.2 µg/mL

Sourced from ChEMBL document CHEMBL5385931
